# Experimental System: CDK7/CycH/Mat1 (Homo sapiens, UniProt P50613)
# Sequence (P50613 whole entry): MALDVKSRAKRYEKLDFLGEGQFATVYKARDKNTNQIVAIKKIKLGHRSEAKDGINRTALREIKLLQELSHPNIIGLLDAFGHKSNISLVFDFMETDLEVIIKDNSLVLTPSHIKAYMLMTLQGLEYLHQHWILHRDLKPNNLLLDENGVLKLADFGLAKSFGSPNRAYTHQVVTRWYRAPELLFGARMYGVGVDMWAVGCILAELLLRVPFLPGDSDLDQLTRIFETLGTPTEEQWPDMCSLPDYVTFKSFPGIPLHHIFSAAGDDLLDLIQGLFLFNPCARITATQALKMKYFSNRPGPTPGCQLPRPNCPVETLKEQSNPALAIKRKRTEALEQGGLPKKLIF
# Run Description: CDK7 Enzymatic Activity Assay (Lance Kinase Activity Assay, FRET)
# Assay type: biochemical
# Conditions Used: CDK7/CycH/Mat1, 25 μM ATP final; class ranges; read-out: CDK7: IC50 [nM] for CDK7 inhibition
Observable: IC50

Reference set (5 entries):
molecule="CC(C)c1cnn2c(NCc3ccccc3-n3cccn3)nc(N3CCC34CCNC4)nc12 (centres unmarked)" result="< 5 nM"
molecule=CC(C)c1cnn2c(NCc3ccccc3S(C)(=O)=O)nc(O[C@@H]3CCCNC3)nc12 result="< 5 nM"
molecule=CC(C)c1cnn2c(NCc3ccccc3-c3cccs3)nc(OC3CCNCC3)nc12 result="< 5 nM"
molecule=CC(C)c1cnn2c(NCc3ccccc3-n3cccn3)nc(NCCN3CCOCC3)nc12 result="> 25 nM"
molecule=CC(C)c1cnn2c(NCc3ccccc3-c3ccccc3)nc(O[C@@H]3CCCNC3)nc12 result="< 5 nM"

For the molecule CC(C)c1cnn2c(NCc3ccccc3-n3cccn3)nc(NCCN)nc12 , report IC50.
5 to 10 nM

Name the recorded IC50 of the molecule listed here: CC(C)c1cnn2c(NCc3ccccc3-n3cccn3)nc([S+]([O-])C3CCNCC3)nc12 (centres unmarked)
< 5 nM

Indicate its recorded IC50; the molecule in question is CC(C)c1cnn2c(NCc3ccccc3-n3cccn3)nc(N3CCC4(CCCCN4)CC3)nc12
< 5 nM
